The origin of these recorded values is ChEMBL document CHEMBL1147627.

Molecular target: Integrin alpha-V/beta-5 (Homo sapiens, UniProt P06756+P18084)
Sequence (P18084 24-799 limits assumed, one chain of several): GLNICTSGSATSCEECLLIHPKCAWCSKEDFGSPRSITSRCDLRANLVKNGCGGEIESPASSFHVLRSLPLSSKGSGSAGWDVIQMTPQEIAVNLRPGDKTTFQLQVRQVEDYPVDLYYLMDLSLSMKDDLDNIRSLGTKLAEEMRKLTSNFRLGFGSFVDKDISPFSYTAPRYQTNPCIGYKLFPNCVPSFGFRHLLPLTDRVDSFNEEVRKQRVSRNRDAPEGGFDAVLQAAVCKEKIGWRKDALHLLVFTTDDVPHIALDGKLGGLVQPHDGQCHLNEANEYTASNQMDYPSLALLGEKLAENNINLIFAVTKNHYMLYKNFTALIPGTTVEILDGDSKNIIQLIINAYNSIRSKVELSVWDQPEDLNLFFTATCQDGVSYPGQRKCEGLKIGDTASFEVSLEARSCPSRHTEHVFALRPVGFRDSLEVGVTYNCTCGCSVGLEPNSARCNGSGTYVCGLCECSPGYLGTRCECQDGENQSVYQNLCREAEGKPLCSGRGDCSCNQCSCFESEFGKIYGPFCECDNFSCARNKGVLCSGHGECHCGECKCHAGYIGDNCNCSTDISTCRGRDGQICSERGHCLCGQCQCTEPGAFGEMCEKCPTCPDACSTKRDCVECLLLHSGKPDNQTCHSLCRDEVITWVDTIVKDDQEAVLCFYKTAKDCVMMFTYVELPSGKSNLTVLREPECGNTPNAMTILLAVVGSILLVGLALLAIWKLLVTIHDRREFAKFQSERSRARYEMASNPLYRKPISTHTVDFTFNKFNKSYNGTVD
Assay: Binding affinity towards alpha V-beta5 receptor expressed in HEK293 cells
pIC50: −log10 of the molar value.
recorded_endpoint: pIC50

Example molecules with recorded pIC50:
* O=C(Nc1ccc(CC(NS(=O)(=O)c2ccccc2)C(=O)O)cc1)c1cccc(NC2=NCCCN2)c1 (configuration not stated) | 9.02
* COc1cc(NC(=O)c2cccc(NC(=N)N)c2)ccc1CC(NC(=O)OC(C)C)C(=O)O (configuration not stated) | 9.42
* Cc1cc(/C=C/C(=O)O)cc(C)c1NC(=O)c1cccc(NC2=NCCN2)c1 | 7.54

P: O=C(Nc1ccc(C2CC2C(=O)O)cc1)c1cccc(NC2=NCCCN2)c1 (configuration not stated)
Q: O=C(O)/C=C/c1ccc(NC(=O)c2cccc(NC3=NCCCN3)c2)cc1Cl
R: NC(N)=Nc1cccc(C(=O)Nc2ccc(CCC(=O)O)cc2)c1
S: CC(C)OC(=O)NC(Cc1ccc(NC(=O)c2cccc(NC3=NC(=O)CN3)c2)cc1)C(=O)O (configuration not stated)
Your job: order these 4 records by pIC50, ascending. List the labels in the requested order.
R, P, Q, S

* * *

Molecular target: Integrin alpha-V/beta-1 (Homo sapiens, UniProt P05556+P06756)
Sequence (P05556 21-798 limits assumed): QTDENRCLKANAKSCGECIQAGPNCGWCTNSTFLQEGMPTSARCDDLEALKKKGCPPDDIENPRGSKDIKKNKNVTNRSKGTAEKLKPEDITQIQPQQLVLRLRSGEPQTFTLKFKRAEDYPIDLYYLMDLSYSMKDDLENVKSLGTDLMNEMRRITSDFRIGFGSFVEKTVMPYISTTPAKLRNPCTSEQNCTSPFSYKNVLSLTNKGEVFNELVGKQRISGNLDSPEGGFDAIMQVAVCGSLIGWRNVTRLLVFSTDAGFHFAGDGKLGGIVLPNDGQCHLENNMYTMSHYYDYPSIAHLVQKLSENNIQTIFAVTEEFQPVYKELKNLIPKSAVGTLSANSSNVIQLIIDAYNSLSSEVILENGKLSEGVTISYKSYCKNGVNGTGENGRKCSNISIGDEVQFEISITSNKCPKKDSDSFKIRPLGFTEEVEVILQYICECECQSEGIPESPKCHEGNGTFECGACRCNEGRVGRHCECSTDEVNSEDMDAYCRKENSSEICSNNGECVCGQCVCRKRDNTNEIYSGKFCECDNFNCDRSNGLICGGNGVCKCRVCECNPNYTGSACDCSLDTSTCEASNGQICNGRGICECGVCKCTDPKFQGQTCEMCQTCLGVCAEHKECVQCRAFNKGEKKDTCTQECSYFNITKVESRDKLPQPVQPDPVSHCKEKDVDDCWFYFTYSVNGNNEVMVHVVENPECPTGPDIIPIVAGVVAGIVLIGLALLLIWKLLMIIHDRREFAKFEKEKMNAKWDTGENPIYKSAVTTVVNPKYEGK
Sequence (P06756 31-889 limits assumed): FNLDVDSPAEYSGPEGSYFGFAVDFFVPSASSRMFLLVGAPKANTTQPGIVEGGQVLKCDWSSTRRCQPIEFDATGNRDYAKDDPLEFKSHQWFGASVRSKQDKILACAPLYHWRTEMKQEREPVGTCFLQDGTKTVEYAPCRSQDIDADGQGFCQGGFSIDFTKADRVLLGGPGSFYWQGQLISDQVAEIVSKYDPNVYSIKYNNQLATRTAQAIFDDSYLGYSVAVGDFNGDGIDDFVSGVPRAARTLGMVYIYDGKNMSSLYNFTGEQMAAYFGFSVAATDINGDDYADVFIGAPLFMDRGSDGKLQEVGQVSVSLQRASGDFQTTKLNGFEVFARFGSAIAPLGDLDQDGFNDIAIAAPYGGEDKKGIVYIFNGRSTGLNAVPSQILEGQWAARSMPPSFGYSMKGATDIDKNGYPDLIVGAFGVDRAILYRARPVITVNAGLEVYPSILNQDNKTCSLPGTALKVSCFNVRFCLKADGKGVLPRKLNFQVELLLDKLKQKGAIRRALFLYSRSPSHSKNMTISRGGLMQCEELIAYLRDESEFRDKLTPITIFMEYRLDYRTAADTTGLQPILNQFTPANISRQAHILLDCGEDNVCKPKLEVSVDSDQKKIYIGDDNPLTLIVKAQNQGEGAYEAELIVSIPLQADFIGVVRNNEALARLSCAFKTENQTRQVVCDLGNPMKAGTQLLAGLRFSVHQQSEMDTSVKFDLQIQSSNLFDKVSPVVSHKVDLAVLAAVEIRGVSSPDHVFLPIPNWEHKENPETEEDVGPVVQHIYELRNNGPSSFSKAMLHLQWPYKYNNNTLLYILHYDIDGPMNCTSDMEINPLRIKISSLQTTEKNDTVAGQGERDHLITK
Sequence (P06756 891-1048 limits assumed): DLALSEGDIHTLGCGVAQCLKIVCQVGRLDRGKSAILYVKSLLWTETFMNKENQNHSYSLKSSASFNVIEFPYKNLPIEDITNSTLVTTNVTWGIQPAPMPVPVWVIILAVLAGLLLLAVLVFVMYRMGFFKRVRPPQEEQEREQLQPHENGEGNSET
Test: Binding affinity towards alpha V-beta1 receptor expressed in HEK293 cells
recorded_endpoint: IC50 (µM)

P: CC(C)(C)OC(=O)NC(Cc1ccc(NC(=O)c2cccc(N=C(N)N)c2)cc1)C(=O)O (configuration not stated)
Q: O=C(O)/C=C/c1ccc(NC(=O)c2cccc(NC3=NCCCN3)c2)c(Cl)c1
R: N=C(N)Nc1cccc(C(=O)Nc2ccc(/C=C/C(=O)O)cc2F)c1
S: CC(C)OC(=O)NC(Cc1ccc(NC(=O)c2cccc(NC3=NC(=O)CN3)c2)cc1)C(=O)O (configuration not stated)
List the 4 compounds shown above, ordered by increasing IC50. Reply with the item labels sorted in the order that was asked for.
P, S, Q, R
(P: 0.0067 µM, S: 0.0177 µM, Q: 0.085 µM, R: 0.426 µM)

* * *

Target: Integrin alpha-V/beta-5 (Homo sapiens, UniProt P06756+P18084)
Test: Binding affinity towards alpha V-beta5 receptor expressed in HEK293 cells
recorded_endpoint: IC50 (nM)

* N=C(N)Nc1cccc(C(=O)Nc2ccc(C3CC3C(=O)O)cc2)c1 (stereo not drawn) | 149
* CC(=O)NC(Cc1ccc(NC(=O)c2cccc(N=C(N)N)c2)cc1)C(=O)O (stereo not drawn) | 40
* Cc1cc(/C=C/C(=O)O)cc(C)c1NC(=O)c1cccc(NC(=N)N)c1 | 116

* * *

Molecular target: Integrin alpha-V/beta-1 (Homo sapiens, UniProt P05556+P06756)
Experiment: Binding affinity towards alpha V-beta1 receptor expressed in HEK293 cells
pIC50: −log10 of the molar value.
recorded_endpoint: pIC50

Solved cases below.
* CC(C)OC(=O)NC(Cc1ccc(NC(=O)c2cccc(N=C(N)N)c2)cc1)C(=O)O (stereo not drawn) | 9.33
* Cc1cc(NC(=O)c2cccc(NC(=N)N)c2)ccc1/C=C/C(=O)O | 6.30
* O=C(O)/C=C/c1ccc(NC(=O)c2cccc(NC3=NCCCN3)c2)cc1Cl | 6.29
* COc1cc(NC(=O)c2cccc(NC3=NCCCN3)c2)ccc1CC(NC(=O)OC(C)C)C(=O)O (stereo not drawn) | 9.17
* COc1cc(NC(=O)c2cccc(NC(=N)N)c2)ccc1CC(NC(=O)OC(C)C)C(=O)O (stereo not drawn) | 8.96
* Cc1cc(/C=C/C(=O)O)cc(C)c1NC(=O)c1cccc(NC2=NCCN2)c1 | 6.58

A: N=C(N)Nc1cccc(C(=O)Nc2ccc(/C=C/C(=O)O)cc2Cl)c1
B: N=C(N)Nc1cccc(C(=O)Nc2ccc(/C=C/C(=O)O)cc2)c1
Please compare: A and B . Report which one has the smaller pIC50 value. Please identify the chosen entry by its label.
A
(A: 6.37, B: 6.96)

1: N=C(N)Nc1cccc(C(=O)Nc2ccc(C3CC3C(=O)O)cc2)c1 (stereo not drawn)
2: O=C(Nc1ccc(CC(NS(=O)(=O)c2ccccc2)C(=O)O)cc1)c1cccc(NC2=NCCCN2)c1 (stereo not drawn)
3: Cc1cc(/C=C/C(=O)O)cc(C)c1NC(=O)c1cccc(NC(=N)N)c1
Please give the order of these compounds when sorted by pIC50, largest value leading. Reply with the labels, ordered as the question asks.
2, 1, 3
(2: 7.98, 1: 6.47, 3: 5.68)

1: O=C(Nc1ccc(C2CC2C(=O)O)cc1)c1cccc(NC2=NCCCN2)c1 (stereo not drawn)
2: CS(=O)(=O)NC(Cc1ccc(NC(=O)c2cccc(N=C(N)N)c2)cc1)C(=O)O (stereo not drawn)
3: N=C(N)Nc1cccc(C(=O)Nc2ccc(CC(NS(=O)(=O)c3ccccc3)C(=O)O)cc2)c1 (stereo not drawn)
Rank order required: pIC50, descending. Thanks in advance for listing the labels in the requested order.
3, 2, 1
(3: 7.74, 2: 7.54, 1: 6.49)

I: O=C(O)/C=C/c1ccc(NC(=O)c2cccc(NC3=NCCCN3)c2)cc1
II: Cc1cc(/C=C/C(=O)O)ccc1NC(=O)c1cccc(NC2=NCCCN2)c1
Recorded pIC50 values differ for I and II ; which one is higher? In your reply, give the label of the chosen option.
II
(II: 7.22, I: 6.66)
